target: ROCK1 (Homo sapiens (Human)); experiment: ROCK assay (LABCHIP peptide phosphorylation), ROCK1; format: biochemical; conditions: 5 μM ATP, 1.5 μM peptide substrate; read-out: ROCK1 IC50
Sequence (Q13464 whole entry, species assumed): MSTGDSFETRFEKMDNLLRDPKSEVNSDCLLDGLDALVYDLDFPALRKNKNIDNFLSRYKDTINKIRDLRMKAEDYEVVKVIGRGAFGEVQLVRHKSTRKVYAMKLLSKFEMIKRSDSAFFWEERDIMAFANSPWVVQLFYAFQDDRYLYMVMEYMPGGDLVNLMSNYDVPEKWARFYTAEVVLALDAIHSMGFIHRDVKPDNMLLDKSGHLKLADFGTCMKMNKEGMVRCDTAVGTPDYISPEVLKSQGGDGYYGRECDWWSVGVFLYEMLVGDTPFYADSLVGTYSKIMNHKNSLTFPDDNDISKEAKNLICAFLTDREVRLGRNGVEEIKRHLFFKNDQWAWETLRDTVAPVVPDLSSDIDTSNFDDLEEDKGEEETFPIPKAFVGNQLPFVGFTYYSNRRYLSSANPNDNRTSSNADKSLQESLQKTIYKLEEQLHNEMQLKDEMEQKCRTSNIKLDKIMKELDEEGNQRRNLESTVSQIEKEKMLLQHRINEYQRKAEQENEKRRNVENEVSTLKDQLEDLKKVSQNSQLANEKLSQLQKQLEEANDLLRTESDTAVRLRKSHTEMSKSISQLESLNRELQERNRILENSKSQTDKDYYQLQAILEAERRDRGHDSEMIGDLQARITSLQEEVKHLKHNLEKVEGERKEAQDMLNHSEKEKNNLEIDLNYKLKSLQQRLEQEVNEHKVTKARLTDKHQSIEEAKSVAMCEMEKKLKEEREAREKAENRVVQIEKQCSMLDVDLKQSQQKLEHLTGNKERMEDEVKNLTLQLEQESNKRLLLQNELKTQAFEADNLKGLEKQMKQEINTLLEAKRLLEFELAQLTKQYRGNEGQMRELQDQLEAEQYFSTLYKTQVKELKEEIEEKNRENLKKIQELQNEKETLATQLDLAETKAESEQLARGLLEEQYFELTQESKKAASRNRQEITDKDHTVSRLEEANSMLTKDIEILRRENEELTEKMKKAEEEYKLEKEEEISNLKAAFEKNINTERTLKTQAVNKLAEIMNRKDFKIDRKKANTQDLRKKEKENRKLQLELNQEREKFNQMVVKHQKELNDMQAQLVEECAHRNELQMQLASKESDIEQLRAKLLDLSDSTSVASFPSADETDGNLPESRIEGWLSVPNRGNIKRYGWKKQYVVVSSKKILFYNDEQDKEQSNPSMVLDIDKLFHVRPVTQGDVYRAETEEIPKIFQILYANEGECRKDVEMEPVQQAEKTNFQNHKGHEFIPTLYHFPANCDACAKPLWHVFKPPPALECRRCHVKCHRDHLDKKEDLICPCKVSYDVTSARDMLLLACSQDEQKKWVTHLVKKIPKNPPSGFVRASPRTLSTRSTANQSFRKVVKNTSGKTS
pIC50: −log10 of the molar value.
measured.property: pIC50

Task item: Query: pIC50; subject: O=C(Nc1ccc(-c2n[nH]c(=O)c3ccccc23)cc1)c1nn(CCC(=O)N2CCOCC2)c2ccccc12 [Example 337]
Reply: 7.00 to 10.00

Task item: Look up pIC50: Cc1cc(NC(=O)c2c(C)nc3ccccn23)ccc1-c1n[nH]c(=O)c2ccccc12 [Example 311]
Reply: 7.00 to 10.00

Task item: Quick check: pIC50 of O=C(Nc1ccc(-c2n[nH]c(=O)c3ccccc23)cc1)c1ccc(N2CCOCC2)cc1 [Example 63] ?
Reply: 6.00 to 7.00

Task item: Given the entry CC(C)(O)COc1ccc2c(c1)N(C(=O)Cc1ccc(-c3c[nH]c(=O)c4ccccc34)cc1)CC2 [Example 288] , report its measured pIC50.
Reply: 7.00 to 10.00

Task item: Name the recorded pIC50 for Cn1ncc(C(=O)Nc2ccc(-c3n[nH]c(=O)c4ccccc34)cc2)c1-c1ccccc1 [Example 192] .
Reply: 6.00 to 7.00

Below are some molecules; for each one, tell me its pIC50.
1. O=C(Nc1ccc(-c2n[nH]c(=O)c3ccccc23)cc1)c1cc2cc(Cl)cnc2[nH]1 [Example 119]
2. COC(=O)N1CC(Cn2nc(C(=O)Nc3ccc(-c4n[nH]c(=O)c5ccccc45)cc3)c3ccccc32)C1 [Example 341]

Reply:
1. 6.00 to 7.00
2. 7.00 to 10.00

====

For each entry below, report its IC50 value.
biological target: UniProtKB O75116; assay: ROCK assay (LABCHIP peptide phosphorylation), ROCK2; assay type: biochemical; conditions: 5 μM ATP, 1.5 μM peptide substrate
Sequence (O75116 whole entry, species assumed): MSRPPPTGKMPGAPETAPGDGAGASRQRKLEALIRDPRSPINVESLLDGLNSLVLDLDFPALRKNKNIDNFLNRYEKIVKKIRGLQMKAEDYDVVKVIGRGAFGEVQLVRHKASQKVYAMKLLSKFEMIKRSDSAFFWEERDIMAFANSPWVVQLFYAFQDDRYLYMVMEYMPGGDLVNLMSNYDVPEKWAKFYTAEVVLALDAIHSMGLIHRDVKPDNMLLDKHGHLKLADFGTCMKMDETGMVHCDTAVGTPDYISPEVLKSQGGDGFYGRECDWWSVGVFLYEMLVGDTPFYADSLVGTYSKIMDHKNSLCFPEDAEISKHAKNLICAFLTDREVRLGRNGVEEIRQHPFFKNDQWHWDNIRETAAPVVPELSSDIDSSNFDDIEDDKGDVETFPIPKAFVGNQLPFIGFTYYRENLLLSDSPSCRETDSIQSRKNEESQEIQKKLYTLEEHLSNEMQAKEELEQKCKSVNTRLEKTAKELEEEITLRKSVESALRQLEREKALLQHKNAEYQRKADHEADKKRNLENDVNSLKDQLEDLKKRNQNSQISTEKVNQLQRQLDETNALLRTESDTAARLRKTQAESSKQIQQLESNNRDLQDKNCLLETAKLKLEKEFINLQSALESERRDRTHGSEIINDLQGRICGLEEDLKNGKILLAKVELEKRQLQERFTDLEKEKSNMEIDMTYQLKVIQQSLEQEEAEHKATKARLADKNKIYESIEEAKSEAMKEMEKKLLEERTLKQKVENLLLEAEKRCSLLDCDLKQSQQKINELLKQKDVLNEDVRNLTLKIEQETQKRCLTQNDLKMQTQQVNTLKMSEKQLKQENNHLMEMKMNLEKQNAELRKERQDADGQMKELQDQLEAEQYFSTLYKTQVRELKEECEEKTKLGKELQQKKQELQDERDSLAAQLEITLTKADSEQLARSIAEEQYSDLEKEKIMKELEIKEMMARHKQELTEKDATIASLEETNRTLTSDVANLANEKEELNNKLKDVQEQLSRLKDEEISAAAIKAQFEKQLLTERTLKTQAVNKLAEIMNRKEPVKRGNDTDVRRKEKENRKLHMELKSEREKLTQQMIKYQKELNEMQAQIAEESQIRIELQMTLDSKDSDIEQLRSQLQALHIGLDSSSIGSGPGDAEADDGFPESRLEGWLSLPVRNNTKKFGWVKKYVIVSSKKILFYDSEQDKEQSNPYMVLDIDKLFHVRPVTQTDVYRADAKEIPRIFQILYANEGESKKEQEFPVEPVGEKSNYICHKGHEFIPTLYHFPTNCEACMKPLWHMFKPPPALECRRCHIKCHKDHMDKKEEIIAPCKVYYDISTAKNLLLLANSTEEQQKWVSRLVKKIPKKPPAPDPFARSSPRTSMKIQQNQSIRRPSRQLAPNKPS

Recorded IC50, per entry:
Task item: Reported IC50, molecule CC(C)(C)n1cc(C(=O)Nc2ccc(-c3n[nH]c(=O)c4ccccc34)cc2)cn1 [Example 381] : ____
Reply: 0.0001 to 0.1 µM

Task item: Fill in: IC50 of COc1ccc2c(c1)N(C(=O)Nc1ccc(-c3c[nH]c(=O)c4ccc(OC)cc34)cc1)CC2 [Example 268] is ___
Reply: 0.0001 to 0.1 µM

Task item: For the molecule shown here, O=C(Nc1ccc(-c2n[nH]c(=O)c3ccccc23)cc1)c1nn(CC2CCN(C(=O)OCCF)CC2)c2ccccc12 [Example 350] , give the reported IC50.
Reply: 0.0001 to 0.1 µM

Next item in the queue.
Task item: Which IC50 is reported for this molecule? Cc1cc(NC(=O)c2nn(CC3CCN(CCCCO)CC3)c3ccccc23)ccc1-c1n[nH]c(=O)c2ccccc12 [Example 321]
Reply: 0.101 to 1 µM

====

molecular target: ROCK1 (Homo sapiens (Human)); test: ROCK assay (LABCHIP peptide phosphorylation), ROCK1; type: biochemical; conditions: 5 μM ATP, 1.5 μM peptide substrate; read-out: ROCK1 IC50
measured.property: IC50

// each compound listed below needs its IC50
1. O=C(Nc1ccc(-c2n[nH]c(=O)c3ccccc23)cc1)c1cnn(-c2ccccc2Cl)c1
2. O=C(Nc1ccc(-c2n[nH]c(=O)c3ccccc23)cc1)C1CC(=O)N(c2ccccc2)C1 (centres unmarked)
3. Cc1cc(C(=O)Nc2ccc(-c3n[nH]c(=O)c4ccccc34)cc2)nn1C
4. O=C(Cc1ccc(-c2n[nH]c(=O)c3ccccc23)cc1)Nc1nccs1
5. Cc1nn(-c2ccccc2)c(C)c1C(=O)Nc1ccc(-c2n[nH]c(=O)c3ccccc23)cc1
6. Cc1cc(CC(=O)N2CCc3ccccc32)ccc1-c1c[nH]c(=O)c2ccccc12
7. O=C(Nc1ccc(-c2n[nH]c(=O)c3ccccc23)cc1)c1cnn(C2CCNC2)c1 (centres unmarked)
8. O=C(Nc1ccc(-c2n[nH]c(=O)c3ccccc23)cc1)c1nn(CC2CCN(C(=O)OCC(F)(F)F)CC2)c2ccccc12

Reply:
0.1 to 100 nM
1000 to 50000 nM
101 to 1000 nM
1000 to 50000 nM
0.1 to 100 nM
0.1 to 100 nM
1000 to 50000 nM
0.1 to 100 nM
